Recorded pIC50 by entry
Target: T1, hPD-1-Fc (human, UniProt Q15116 25-167)
T1 construct: domain: IgV domain; also called human PD-1-Fc; not shown: human IgG1 Fc
T1 sequence (Q15116 25-167 limits assumed): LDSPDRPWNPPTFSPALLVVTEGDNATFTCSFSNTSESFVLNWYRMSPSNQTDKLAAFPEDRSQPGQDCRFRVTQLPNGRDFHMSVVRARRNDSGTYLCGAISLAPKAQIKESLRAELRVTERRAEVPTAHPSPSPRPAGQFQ
Assay: blocking ELISA, hPD-1-Fc to hPD-L1-Fc
pIC50: −log10 of the molar value.
PROPERTY NAME: pIC50

INSERT INTO assay_data (binder, measured) VALUES
  ('31B1 (antibody, V domains shown, also called 780_38; 33B1 and 31B2 (apparent misprints)) VH: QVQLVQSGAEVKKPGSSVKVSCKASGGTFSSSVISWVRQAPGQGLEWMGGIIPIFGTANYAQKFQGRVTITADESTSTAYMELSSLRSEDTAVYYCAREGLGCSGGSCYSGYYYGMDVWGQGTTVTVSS VL: DIVMTQSPLSLPVTPGEPASISCRSSQSLLHSNGYNYLDWYLQKPGQSPQLLIYEASSLHSGVPDRFSGSGSGTDFTLKISRVEAEDVGVYYCMQGTHWPYTFGQGTKVEIK', 8.67),
  ('33G8 (antibody, V domains shown) VH: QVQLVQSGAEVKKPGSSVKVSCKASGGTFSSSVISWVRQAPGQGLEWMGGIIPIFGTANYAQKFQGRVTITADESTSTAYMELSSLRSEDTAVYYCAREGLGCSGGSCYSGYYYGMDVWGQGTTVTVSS VL: DIVMTQSPLSLPVTPGEPASISCRSSQSLLHSNGYNYLDWYLQKPGQSPQLLIYQASTLGSGVPDRFSGSGSGTDFTLKISRVEAEDVGVYYCMQGTHWPYTFGQGTKLEIK', 8.74),
  ('33C4 (antibody, V domains shown, also called 780_39) VH: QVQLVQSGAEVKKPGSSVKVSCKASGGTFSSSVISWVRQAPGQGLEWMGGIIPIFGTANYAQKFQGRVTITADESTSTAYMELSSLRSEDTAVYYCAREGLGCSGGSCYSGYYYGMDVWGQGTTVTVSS VL: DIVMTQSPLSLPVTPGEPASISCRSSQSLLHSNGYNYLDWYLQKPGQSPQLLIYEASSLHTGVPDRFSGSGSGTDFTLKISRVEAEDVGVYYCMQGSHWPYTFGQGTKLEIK', 8.69);
